# experimental target: T1, recombinant cyno BCMA, in house material (cyno, UniProt A0A2K5UD97 4-52)
# T1 construct: also called Cyno in house BCMA
# T1 sequence (A0A2K5UD97 entry or part of it): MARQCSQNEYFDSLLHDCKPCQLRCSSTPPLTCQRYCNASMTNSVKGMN
# experiment description: ProteOn SPR run 1, antibody captured on Protein A, 25C
Listed next: entries and their corresponding Kd.
Express your answer as a number followed by its unit.

Example cases with answers are listed next.
CA8 humanised J0M2 (antibody, human IgG1, kappa, V domains shown, Humanised CA8, heavy chain J0 with light chain M2, human IgG1 kappa; also called CA8 J0M2) VH: QVQLVQSGAEVKKPGSSVKVSCKASGGTFSNYWMHWVRQAPGQGLEWMGATYRGHSDTYYNQKFKGRVTITADKSTSTAYMELSSLRSEDTAVYYCARGAIYNGYDVLDNWGQGTLVTVSS VL: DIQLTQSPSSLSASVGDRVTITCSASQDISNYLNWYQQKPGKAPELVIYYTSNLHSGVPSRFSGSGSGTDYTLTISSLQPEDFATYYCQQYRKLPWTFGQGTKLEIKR | 0.563 nM
CA8 humanised J2M2 (antibody, human IgG1, kappa, V domains shown, Humanised CA8, heavy chain J2 with light chain M2, human IgG1 kappa; also called CA8 J2M2) VH: QVQLVQSGAEVKKPGSSVKVSCKASGYTFTNYWMHWVRQAPGQGLEWMGATYRGHSDTYYNQKFKGRVTITADKSTSTAYMELSSLRSEDTAVYYCTRGAIYNGYDVLDNWGQGTLVTVSS VL: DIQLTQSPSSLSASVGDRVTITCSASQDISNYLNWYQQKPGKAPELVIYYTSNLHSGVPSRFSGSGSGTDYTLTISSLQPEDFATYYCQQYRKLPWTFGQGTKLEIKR | 0.106 nM
CA8 humanised J2M0 (antibody, human IgG1, kappa, V domains shown, Humanised CA8, heavy chain J2 with light chain M0, human IgG1 kappa; also called CA8 J2M0) VH: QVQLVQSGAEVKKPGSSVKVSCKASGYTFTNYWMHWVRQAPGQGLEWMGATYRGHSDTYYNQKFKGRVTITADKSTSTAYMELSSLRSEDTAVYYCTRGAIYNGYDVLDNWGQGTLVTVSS VL: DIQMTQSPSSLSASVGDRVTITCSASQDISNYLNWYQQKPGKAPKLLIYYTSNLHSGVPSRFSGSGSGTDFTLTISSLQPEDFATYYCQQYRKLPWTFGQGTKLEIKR | 0.538 nM

The binder listed as CA8 humanised J4M1 (antibody, human IgG1, kappa, V domains shown, Humanised CA8, heavy chain J4 with light chain M1, human IgG1 kappa; also called CA8 J4M1) VH: QVQLVQSGAEVKKPGSSVKVSCKGSGYTFTNYWMHWVRQAPGQGLEWIGATYRGHSDTYYNQKFKGRATLTADTSTSTAYMELSSLRSEDTAVYYCTRGAIYNGYDVLDNWGQGTLVTVSS VL: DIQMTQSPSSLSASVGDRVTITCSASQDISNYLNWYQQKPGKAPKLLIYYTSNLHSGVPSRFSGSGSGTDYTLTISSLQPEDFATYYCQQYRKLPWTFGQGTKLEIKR has a reported Kd of 0.203 nM
